# Tested on: E. multilocularis metacestode vesicles
# experiment: Metacestode vesicle viability assay (ATP, CellTiter-Glo)
# Assay type: cell-based, Echinococcus multilocularis
# condition notes: overview screen, 10 μM, singlets, 12 days, relative to DMSO control
assay metric: Viability d12 (relative viability)

Recorded results for 5 molecules are shown here.
molecule=CC(C)c1cc2c(cc1S(=O)(=O)O)[C@@]1(C)CCC[C@@](C)(C(=O)O)[C@@H]1CC2 observed=100.907%
molecule=O=C(O)C[C@H]1CC[C@H](c2ccc(-c3ccc(Nc4ccc(C(F)(F)F)nc4)cn3)cc2)CC1 observed=139.746%
molecule=CC[C@H](NC(=O)[C@H](C)NC)C(=O)N1C[C@@H](O)C[C@H]1Cc1c(-c2[nH]c3cc(F)ccc3c2C[C@@H]2C[C@H](O)CN2C(=O)[C@H](CC)NC(=O)[C@H](C)NC)[nH]c2cc(F)ccc12 observed=106.397%
molecule=O=C(NCc1cccc2ccccc12)c1cccs1 observed=53.7721%
molecule=CCC[C@@H]1C[C@@H](C(=O)N[C@@H]([C@H]2O[C@H](SC)[C@H](O)[C@@H](O)[C@H]2O)[C@H](C)Cl)N(C)C1.Cl observed=23.7506%

Could you tell me Viability d12 (relative viability) for each of these molecules? They are listed below.
1. CCOc1noc2cc(OCCC3CCN(c4ccc(C)nn4)CC3)ccc12
2. O=C1NC(=S)N/C1=C\c1cc(Br)cc(Br)c1O
3. C/C(=N\NC(=O)C1CC1c1ccccc1)c1ccc(NC(=O)c2ccco2)cc1 (centres unmarked)
4. Cc1cc(NS(=O)(=O)c2ccc(-c3ccc(F)cc3F)cc2)no1
5. CCNC(=O)Nc1cc(-c2ccccc2)c(-c2cncc(C(=O)O)c2)cn1
6. O=C(O)c1ccccc1Sc1ncnc2sc3c(c12)CCC3
7. Oc1ccc(NCc2ccccc2OCc2ccccc2)cc1
8. CC(=O)N1c2ccccc2NC2=C(C(=O)CC(C)(C)C2)C1c1ccc(OCc2ccccc2)cc1 (centres unmarked)

1: 88.166%; 2: 64.4597%; 3: 105.695%; 4: 58.3644%; 5: 81.2426%; 6: 137.353%; 7: 79.6345%; 8: 72.2027%

Could you tell me Viability d12 (relative viability) for each of these molecules? They are listed below.
1. O=C(O)c1sccc1S(=O)(=O)n1ccc2cc(Br)ccc21
2. Nc1nnc(-c2ccc(Cl)cc2)s1
3. Cc1cc(CCOc2c(C)cc(-c3nnn(C)n3)cc2C)on1
4. O=C(O)c1ccc(-n2nc(-c3ccccc3O)nc2-c2ccccc2O)cc1

1. 69.7674%
2. 11.5226%
3. 107.625%
4. 145.619%

====

# Test system: E. multilocularis metacestode vesicles
# experiment: Phosphoglucose isomerase (PGI) release assay (damage-marker release) on metacestode vesicles
# Format: cell-based, Echinococcus multilocularis
# condition notes: overview screen, 10 μM, singlets, 12 days, relative to 0.1 % Triton X-100, DMSO subtracted
assay metric: PGI d12 (relative PGI release) (%)
One number for each entry, in %.

Recorded results for 2 compounds are shown here.
compound="CC(N)C12CC3CC(CC(C3)C1)C2 (stereo not drawn) [MMV637855]" observed=-0.5462
compound="Nc1c(C(=O)NCc2ccco2)c2nc3ccccc3nc2n1CCN1CCCCC1 [MMV099714]" observed=44.8288

Could you tell me PGI d12 (relative PGI release) for each of these compounds? They are listed below.
1. CC(C)(C)c1ccc(OCCn2nc(C(=O)O)c3ccccc3c2=O)cc1 [MMV1634387]
2. O=C(c1cc(O)nc2ccccc12)N1CCN(c2ccccc2)CC1 [MMV596723]
3. Cc1[nH]c2ccccc2c1CCNCc1ccc(/C=C/C(=O)NO)cc1 [MMV010036]
4. Nc1nc(O)c(Br)c(-c2cccc(Cl)c2)n1 [MMV1645152]
5. CN1CCN(Cc2ccc(-c3cnc4[nH]cc(-c5ccc6[nH]ccc6c5)c4c3)cc2)CC1 [MMV1580482]
6. Oc1ccc(NCc2ccccc2OCc2ccccc2)cc1 [MMV1580504]
7. Cn1cncc1[C@@](N)(c1ccc(Cl)cc1)c1ccc2c(c1)c(-c1cccc(Cl)c1)cc(=O)n2C [MMV658803]

1. -12.4336
2. -19.4413
3. -1.326
4. -17.4315
5. 0.07079
6. -20.6703
7. -2.529

====

# Tested on: E. multilocularis metacestode vesicles
# experiment: Phosphoglucose isomerase (PGI) release assay (damage-marker release) on metacestode vesicles
# Assay type: cell-based, Echinococcus multilocularis
# condition notes: overview screen, 10 μM, singlets, 12 days, relative to 0.1 % Triton X-100, DMSO subtracted
# Protocol: In order to quantify the drug-induced damage on whole metacestode vesicles, phosphoglucose isomerase (PGI) assay was performed as described previously ([Stadelmann et al., 2010]) with few adaptations published recently ([Kaethner et al., 2023]). […] PGI activity in the supernatants was measured on a HIDEX Sense microplate reader (Hidex, Turku, Finland). […] IC50 values were calculated applying the 3 parameter Weibull type 1 in R for each of the three independent experiments ([Ritler et al., 2020]).
Please respond with reported PGI d12 (relative PGI release) for every item in the list.
One number for each entry, in %.

compound=CC(=O)Nc1cc(NS(=O)(=O)c2ccc(Cl)cc2)cc2c(Cl)n[nH]c12 assay_metric="PGI d12 (relative PGI release)" observed=30.3469
compound=C[C@@]1(O)[C@H](O)[C@@H](CO)O[C@H]1n1ccc2c(N)ncnc21 assay_metric="PGI d12 (relative PGI release)" observed=0.1259
compound="O=P(O)(O)C(CCCc1cccc(Oc2ccccc2)c1)S(=O)(=O)O (centres unmarked)" assay_metric="PGI d12 (relative PGI release)" observed=19.5176

Could you tell me PGI d12 (relative PGI release) for each of these compounds? They are listed below.
1. N[C@@H]1CN(c2c(F)cc3c(=O)c(C(=O)O)cn([C@@H]4C[C@@H]4F)c3c2Cl)CC12CC2
2. CN(C)c1[nH]c(=O)ncc1F

-5.627
-24.7543

Could you tell me PGI d12 (relative PGI release) for each of these compounds? They are listed below.
1. Clc1ccc(Cn2c(CN3CCCC3)nc3ccccc32)cc1
2. Cc1nc(Nc2ccc(F)cc2)nc(N2CCc3ccccc3C2C)c1C (centres unmarked)
3. O=c1ccc2ncc(=O)n3c2n1CC3CN1CCC(NCc2cc3c(cn2)OCCC3)CC1 (centres unmarked)
4. CCc1cc(Nc2cc(=O)n(CCN3CCN(C(=O)c4ccccc4)CC3)c(=O)[nH]2)ccc1C
5. CCCCSc1nc(N)c2[nH]c(=O)c(=O)n(Cc3ccccc3)c2n1
6. Nc1nc(=O)[nH]cc1F
7. C[C@@H](NC(=O)c1cccc(-c2cnc(-c3cc4ccccc4cn3)[nH]2)c1)c1ccc(F)cc1
8. CN(C)CCCOc1ccc(-c2ccc3ncc4c(c3c2)n(C2CCOCC2)c(=O)n4C)cn1

1: -18.1648; 2: -7.918; 3: -8.489; 4: 52.997; 5: -15.2556; 6: -20.764; 7: 6.1027; 8: 2.3899

Could you tell me PGI d12 (relative PGI release) for each of these compounds? They are listed below.
1. CCC[C@@H]1C[C@@H](C(=O)N[C@@H]([C@H]2O[C@H](SC)[C@H](O)[C@@H](O)[C@H]2O)[C@H](C)Cl)N(C)C1.Cl
2. CCNC(=O)Nc1cc2c(-c3ccnc(C)c3)ccc(CNC(=O)OC)c2cn1
3. O[C@@](Cn1cnnn1)(c1ccc(F)cc1F)C(F)(F)c1ccc(-c2ccc(OCC(F)(F)F)cc2)cn1
4. O=C(O)[C@H]1C2CCC(CC2)[C@@H]1Nc1nc(-c2c[nH]c3ncc(F)cc23)ncc1F

1: 58.7211; 2: -26.1278; 3: -27.2627; 4: -18.5586

====

Please respond with reported Viability d12 (relative viability) for every item in the list.
# System: E. multilocularis metacestode vesicles
# experiment: Metacestode vesicle viability assay (ATP, CellTiter-Glo)
# Type: cell-based, Echinococcus multilocularis
# condition notes: 10 µM
# Description: Viability was assessed after 12 days using the same metacestode vesicles as for the PGI release assay. Triton X-100 was added to each well to a final concentration of 0.1 %. Subsequently the metacestode vesicles were broken mechanically and 50 μL of the supernatant was mixed with 50 μL of CellTiter-Glo® buffer (Promega, Dübendorf, Switzerland). Measurements were performed on a HIDEX Sense microplate reader.
One number for each entry, in %.

Recorded results for 3 molecules are shown here.
molecule=N#C/C(=C1/SC[C@@H](c2ccc(Cl)cc2Cl)S1)n1ccnc1 assay_metric="Viability d12 (relative viability)" observed=41.9155
molecule=CC#C[C@]1(O)CC[C@H]2[C@@H]3CCC4=CC(=O)CCC4=C3[C@@H](c3ccc(N(C)C)cc3)C[C@@]21C assay_metric="Viability d12 (relative viability)" observed=92.6641
molecule="O=C(NC1CCCc2c1[nH]c1ccc(Cl)cc21)c1ccccn1 (centres unmarked)" assay_metric="Viability d12 (relative viability)" observed=144.507

Could you tell me Viability d12 (relative viability) for each of these molecules? They are listed below.
1. CC(=O)O[C@H]1C[C@@]2(C)[C@@H](C[C@@H](O)[C@H]3[C@@]4(C)CC[C@@H](O)[C@@H](C)[C@@H]4CC[C@@]32C)/C1=C(\CCC=C(C)C)C(=O)O
2. CN(C)CCCOc1ccc(-c2ccc3ncc4c(c3c2)n(C2CCOCC2)c(=O)n4C)cn1
3. C[C@@H](c1nc(-c2ccc(C#N)cc2)cs1)[C@](O)(Cn1cncn1)c1ccc(F)cc1F
4. NCc1ccc(S(N)(=O)=O)cc1
5. CC(C)(C)NC(=O)[C@@H]1C[C@@H]2CCCC[C@@H]2CN1C[C@@H](O)[C@H](Cc1ccccc1)NC(=O)[C@H](CC(N)=O)NC(=O)c1ccc2ccccc2n1

1. 144.199
2. 49.6824
3. 103.703
4. 140.59
5. 108.384
